System: Escherichia coli TOP10
Experiment: shrunken log2 fold change of peptide-encoding DNA abundance (4.5 h post-induction vs induction); higher = less antimicrobial activity (less host growth inhibition)
Conditions: time post-induction: 4.5 h; library: site-saturation at positions 5, 18, 19, 20
Parameter shrunken log2 fold change: see the listing below.

RECORD SEQUENCE: RRIRHRPPRLPRPRPRPHMDPRP
TEST VALUE: -0.162
--
RECORD SEQUENCE: RRIRHRPPRLPRPRPRPPVFPRP
TEST VALUE: 0.612
--
RECORD SEQUENCE: RRIRTRPPRLPRPRPRPAVNPRP
TEST VALUE: 0.000461
--
RECORD SEQUENCE: RRIRTRPPRLPRPRPRPWMFPRP
TEST VALUE: -0.355

We now examine a further sequence.
Record RRIRKRPPRLPRPRPRPTGNPRP : what is its shrunken log2 fold change with Escherichia coli TOP10?
0.563

====

Tested on: Escherichia coli TOP10
Assay: shrunken log2 fold change of peptide-encoding DNA abundance (4.5 h post-induction vs induction); higher = less antimicrobial activity (less host growth inhibition)
Conditions: time post-induction: 4.5 h; library: site-saturation at positions 5, 18, 19, 20
Parameter shrunken log2 fold change: see the listing below.
Returns: the value as a bare number; no unit string appended.

RECORD SEQUENCE: RRIRHRPPRLPRPRPRPMDAPRP
EXPERIMENTAL SYSTEM: Escherichia coli TOP10
shrunken log2 fold change: 0.00875

RECORD SEQUENCE: RRIRKRPPRLPRPRPRPAHQPRP
EXPERIMENTAL SYSTEM: Escherichia coli TOP10
shrunken log2 fold change: 0.162

RECORD SEQUENCE: RRIRTRPPRLPRPRPRPICLPRP
EXPERIMENTAL SYSTEM: Escherichia coli TOP10
shrunken log2 fold change: -0.14

RECORD SEQUENCE: RRIRERPPRLPRPRPRPEFTPRP
EXPERIMENTAL SYSTEM: Escherichia coli TOP10
shrunken log2 fold change: 0.0663

Recorded shrunken log2 fold change for RRIRNRPPRLPRPRPRPWRHPRP , please?
-0.109

How about RRIRPRPPRLPRPRPRPIHMPRP ?
-0.23

How about RRIRMRPPRLPRPRPRPDRDPRP ?
0.353

How about RRIRPRPPRLPRPRPRPFMDPRP ?
-0.248

====

Parameter shrunken log2 fold change: see the listing below.
System: Escherichia coli TOP10
Experiment: shrunken log2 fold change of peptide-encoding DNA abundance (4.5 h post-induction vs induction); higher = less antimicrobial activity (less host growth inhibition)
Details: time post-induction: 4.5 h; library: site-saturation at positions 5, 18, 19, 20
Returns: the value as a bare number; no unit string appended.

Recorded shrunken log2 fold change for RRIRWRPPRLPRPRPRPVDWPRP , please?
2.21

How about RRIRHRPPRLPRPRPRPFAEPRP ?
-0.0659

====

Test system: Escherichia coli TOP10
Assay: shrunken log2 fold change of peptide-encoding DNA abundance (4.5 h post-induction vs induction); higher = less antimicrobial activity (less host growth inhibition)
Conditions: time post-induction: 4.5 h; library: site-saturation at positions 5, 18, 19, 20
MEASURED METRIC: shrunken log2 fold change
Returns: the value as a bare number; no unit string appended.

RECORD SEQUENCE: RRIRFRPPRLPRPRPRPYQCPRP
shrunken log2 fold change: -0.0374

RECORD SEQUENCE: RRIRRRPPRLPRPRPRPHGTPRP
shrunken log2 fold change: 0.00291

RECORD SEQUENCE: RRIRWRPPRLPRPRPRPGHDPRP
shrunken log2 fold change: 0.043

RECORD SEQUENCE: RRIRDRPPRLPRPRPRPIASPRP
shrunken log2 fold change: 0.194

RECORD SEQUENCE: RRIRERPPRLPRPRPRPPVWPRP
shrunken log2 fold change: 0.634

Recorded shrunken log2 fold change for RRIRSRPPRLPRPRPRPYNGPRP , please?
-0.0342

====

System: Escherichia coli TOP10
Assay: shrunken log2 fold change of peptide-encoding DNA abundance (4.5 h post-induction vs induction); higher = less antimicrobial activity (less host growth inhibition)
Details: time post-induction: 4.5 h; library: site-saturation at positions 5, 18, 19, 20
Is shrunken log2 fold change at least 0.04? Then Met. If not, Not met.

Completed entries (count: 5):
RECORD SEQUENCE: RRIRWRPPRLPRPRPRPIPWPRP
CLASS ASSIGNMENT: Not met

RECORD SEQUENCE: RRIRPRPPRLPRPRPRPCRHPRP
CLASS ASSIGNMENT: Not met

RECORD SEQUENCE: RRIRSRPPRLPRPRPRPHTIPRP
CLASS ASSIGNMENT: Not met

RECORD SEQUENCE: RRIRVRPPRLPRPRPRPKANPRP
CLASS ASSIGNMENT: Met

RECORD SEQUENCE: RRIRIRPPRLPRPRPRPCLIPRP
CLASS ASSIGNMENT: Not met

Can RRIRNRPPRLPRPRPRPRVQPRP be said to have shrunken log2 fold change at or above 0.04?
Not met

How about RRIRFRPPRLPRPRPRPKKAPRP ?
Met

How about RRIRWRPPRLPRPRPRPKMDPRP ?
Met

How about RRIRRRPPRLPRPRPRPGRMPRP ?
Met

How about RRIRGRPPRLPRPRPRPPICPRP ?
Met

How about RRIRNRPPRLPRPRPRPFIHPRP ?
Not met

How about RRIRKRPPRLPRPRPRPKRTPRP ?
Met

How about RRIRVRPPRLPRPRPRPKNNPRP ?
Not met

How about RRIRHRPPRLPRPRPRPYRSPRP ?
Not met

How about RRIRERPPRLPRPRPRPWFNPRP ?
Not met

How about RRIRTRPPRLPRPRPRPELNPRP ?
Met

====

Test system: Escherichia coli TOP10
Test: shrunken log2 fold change of peptide-encoding DNA abundance (4.5 h post-induction vs induction); higher = less antimicrobial activity (less host growth inhibition)
Conditions: time post-induction: 4.5 h; library: site-saturation at positions 5, 18, 19, 20
Parameter shrunken log2 fold change: see the listing below.
Returns: the value as a bare number; no unit string appended.

Record RRIRGRPPRLPRPRPRPMVSPRP : what is its shrunken log2 fold change with Escherichia coli TOP10?
0.313

How about RRIRMRPPRLPRPRPRPGWWPRP ?
-0.026

How about RRIRERPPRLPRPRPRPDSVPRP ?
-0.17

How about RRIRMRPPRLPRPRPRPGFYPRP ?
0.0157

How about RRIRERPPRLPRPRPRPEETPRP ?
-0.0248

How about RRIRWRPPRLPRPRPRPMLQPRP ?
0.544

How about RRIRRRPPRLPRPRPRPPDTPRP ?
0.436

How about RRIRPRPPRLPRPRPRPEPSPRP ?
0.314

====

Test system: Escherichia coli TOP10;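 note: peptides expressed intracellularly from a pBAD plasmid library in pooled LB shake-flask culture, induced with 0.3% L-arabinose, DNA abundance read by NGS, three biological replicates, DESeq2 with apeglm shrinkage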
Assay: shrunken log2 fold change of peptide-encoding DNA abundance (4.5 h post-induction vs induction); higher = less antimicrobial activity (less host growth inhibition)
Settings: time post-induction: 4.5 h; library: site-saturation at positions 5, 18, 19, 20
Is shrunken log2 fold change at least 0.01? Then True. If not, False.

Completed entries (count: 5):
RECORD SEQUENCE: RRIRDRPPRLPRPRPRPCKWPRP
CLASS ASSIGNMENT: False

RECORD SEQUENCE: RRIRTRPPRLPRPRPRPCQWPRP
CLASS ASSIGNMENT: False

RECORD SEQUENCE: RRIRCRPPRLPRPRPRPIEFPRP
CLASS ASSIGNMENT: True

RECORD SEQUENCE: RRIRWRPPRLPRPRPRPPFVPRP
CLASS ASSIGNMENT: True

RECORD SEQUENCE: RRIRMRPPRLPRPRPRPNFWPRP
CLASS ASSIGNMENT: True

Can RRIRHRPPRLPRPRPRPTEPPRP be said to have shrunken log2 fold change at or above 0.01?
True

How about RRIRTRPPRLPRPRPRPPISPRP ?
True

How about RRIRIRPPRLPRPRPRPAGEPRP ?
True

How about RRIRRRPPRLPRPRPRPIVLPRP ?
False

How about RRIRMRPPRLPRPRPRPGRGPRP ?
True

How about RRIRNRPPRLPRPRPRPMTIPRP ?
False

How about RRIRTRPPRLPRPRPRPVPWPRP ?
True

How about RRIRIRPPRLPRPRPRPFMKPRP ?
False

How about RRIRKRPPRLPRPRPRPDPKPRP ?
True

How about RRIRLRPPRLPRPRPRPMMCPRP ?
False

How about RRIRHRPPRLPRPRPRPRLKPRP ?
False

How about RRIRIRPPRLPRPRPRPYICPRP ?
False

How about RRIRARPPRLPRPRPRPTCEPRP ?
True

How about RRIRVRPPRLPRPRPRPPGEPRP ?
True

How about RRIRSRPPRLPRPRPRPCSTPRP ?
True

How about RRIRQRPPRLPRPRPRPFIYPRP ?
False

How about RRIRPRPPRLPRPRPRPEDLPRP ?
True

How about RRIRMRPPRLPRPRPRPSENPRP ?
False

How about RRIRKRPPRLPRPRPRPHFAPRP ?
True

How about RRIRSRPPRLPRPRPRPNGDPRP ?
False

How about RRIRFRPPRLPRPRPRPNFFPRP ?
False

How about RRIRFRPPRLPRPRPRPGAFPRP ?
False

How about RRIRTRPPRLPRPRPRPIHHPRP ?
False

How about RRIRHRPPRLPRPRPRPWFFPRP ?
False

How about RRIRRRPPRLPRPRPRPPESPRP ?
True

How about RRIRQRPPRLPRPRPRPIINPRP ?
False
